assay type: in vivo, human; settings: human, plasma, po, 20 mg, Tmax, median (range), 20 mg oral, fasting (n = 33)
Reported metric: Tmax (h)
Give the value in h but do not write h after it.

What measured Tmax goes with `Cc1[nH]c2ccccc2c1CCNCc1ccc(/C=C/C(=O)NO)cc1` ?
1.5

----------
type: in vivo, human; settings: human, plasma, po, 20 mg, t1/2, mean (CV, %), 20 mg oral, fasting (n = 33)
Reported metric: half-life
Please format your answer as a value with the unit trailing.

What measured half-life goes with Cc1[nH]c2ccccc2c1CCNCc1ccc(/C=C/C(=O)NO)cc1 [panobinostat, Panobinostat] ?
14.5 h

----------
type: in vivo, human; details: human, plasma, po, 20 mg, Cmax, mean (CV, %), 20 mg oral, fasting (n = 33)
Reported metric: Cmax (ng/mL)
Give the value in ng/mL but do not write ng/mL after it.

What measured Cmax goes with `Cc1[nH]c2ccccc2c1CCNCc1ccc(/C=C/C(=O)NO)cc1` ?
23
